Origin of the recorded values: paper PMC7213079

# Test system: PAO1-L mCTX::PpqsA-lux
# assay procedure: PpqsA-lux bioreporter assay, strain PAO1-L
# Type: cell-based, Pseudomonas aeruginosa
# test conditions: Pseudomonas aeruginosa, PAO1, read-out: IC50 PAO1-L
Each item that follows carries a reported IC50.
endpoint: IC50 (nM)

compound	recorded number
Cn1c2ccccc2c2nnc(SCC(=O)Nc3ccc(Oc4ccccc4)cc3)nc21	380
Cn1c2ccccc2c2nnc(SCC(=O)Nc3ccc(CC#N)cc3)nc21	620
Cn1c2ccc(Br)cc2c2nnc(SCC(=O)Nc3ccc(Cl)c(Cl)c3)nc21	3100
Cn1c2ccccc2c2nnc(SCC(=O)Nc3ccc(Br)cc3)nc21	1710
Cc1ccc(NC(=O)CSc2nnc3c4ccccc4n(C)c3n2)cc1	1860
Cn1c2ccccc2c2nnc(SCC(=O)Nc3ccc(Oc4ccccn4)cc3)nc21	250
O=C(CSc1nc2cc([N+](=O)[O-])ccc2[nH]1)Nc1ccc(Oc2ccccc2)cc1 [Compound M64, reference compound]	320
Cn1c2ccc(Br)cc2c2nnc(SCC(=O)Nc3ccc(F)cc3)nc21	1360

###

# Tested on: PA14 mCTX::PpqsA-lux
# assay procedure: PpqsA-lux bioreporter assay, strain PA14
# Format: cell-based, Pseudomonas aeruginosa
# test conditions: PpqsA-lux bioreporter, n = 9; NA = not active at 10 μM
endpoint: IC50 PA14

compound structure string	endpoint	result
Cn1c2ccc(Br)cc2c2nnc(SCC(=O)Nc3cccc(Cl)c3)nc21	IC50 PA14	inactive
Cn1c2ccc(Br)cc2c2nnc(SCC(=O)Nc3ccccc3Cl)nc21	IC50 PA14	inactive
Cn1c2ccccc2c2nnc(SCC(=O)Nc3cccc(Cl)c3)nc21	IC50 PA14	inactive
Cn1c2ccccc2c2nnc(SCC(=O)Nc3ccc(Cl)cc3)nc21	IC50 PA14	inactive
Cn1c2ccccc2c2nnc(SCC(=O)Nc3ccccc3Cl)nc21	IC50 PA14	inactive

###

# System: PAO1-L mCTX::PpqsA-lux
# assay procedure: PpqsA-lux bioreporter assay, strain PAO1-L
# Format: cell-based, Pseudomonas aeruginosa
# test conditions: Pseudomonas aeruginosa, PAO1, read-out: IC50 PAO1-L
pIC50: −log10 of the molar value.
Each item that follows carries a reported pIC50.

compound structure string	pIC50
Cn1c2ccc(Br)cc2c2nnc(SCC(=O)Nc3ccc(Cl)cc3)nc21	5.70
Cn1c2ccccc2c2nnc(SCC(=O)Nc3ccc(Cl)cc3)nc21	6.01
Cn1c2ccc(Br)cc2c2nnc(SCC(=O)Nc3ccc(Br)cc3)nc21	4.64
Cn1c2ccc(Br)cc2c2nnc(SCC(=O)Nc3ccc(Oc4ccccc4)cc3)nc21	5.36
Cn1c2ccccc2c2nnc(SCC(=O)Nc3ccc(Oc4ncccn4)cc3)nc21	5.98

###

# Test system: PA14 mCTX::PpqsA-lux
# assay procedure: PpqsA-lux bioreporter assay, strain PA14
# Assay type: cell-based, Pseudomonas aeruginosa
# test conditions: Pseudomonas aeruginosa, PA14, read-out: IC50 PA14
pIC50: −log10 of the molar value.
Each item that follows carries a reported pIC50.

molecule	target	pIC50
Cn1c2ccccc2c2nnc(SCC(=O)Nc3ccc(CC#N)cc3)nc21	PA14 mCTX::PpqsA-lux	5.70
Cn1c2ccc(Br)cc2c2nnc(SCC(=O)Nc3ccc(Cl)c(Cl)c3)nc21	PA14 mCTX::PpqsA-lux	5.12
Cn1c2ccccc2c2nnc(SCC(=O)Nc3ccc(Br)cc3)nc21	PA14 mCTX::PpqsA-lux	5.87
Cn1c2ccc(Br)cc2c2nnc(SCC(=O)Nc3ccc(Cl)cc3)nc21	PA14 mCTX::PpqsA-lux	5.80
O=C(CSc1nc2cc([N+](=O)[O-])ccc2[nH]1)Nc1ccc(Oc2ccccc2)cc1 [Compound M64, reference compound]	PA14 mCTX::PpqsA-lux	5.91
Cn1c2ccccc2c2nnc(SCC(=O)Nc3ccc(Oc4ccccn4)cc3)nc21	PA14 mCTX::PpqsA-lux	6.47
Cn1c2ccccc2c2nnc(SCC(=O)Nc3ccc(Oc4ccccc4)cc3)nc21	PA14 mCTX::PpqsA-lux	6.46
Cn1c2ccccc2c2nnc(SCC(=O)Nc3ccc(Oc4ncccn4)cc3)nc21	PA14 mCTX::PpqsA-lux	5.88
